TGI values, listed per item
Test system: BT-549 breast
test_description: NCI tumour cell line growth inhibition, 48 h

CCOC(=O)c1cc2c(n1Cc1cc(OC)cc(OC)c1)-c1oncc1CC2 | > 100 µM
CC(=O)c1cccc(Nc2nc3ccccc3c3[nH]c4ccccc4c23)c1 | > 100 µM
CCCC(C(=O)Nc1cccc2[nH]cnc12)C(=O)OCC (stereo unspecified) | > 100 µM

TGI reading for CCN(CC)CCCNc1cc(OC)c(OC)c2cccnc12 : 36.5 µM

TGI reading for Cc1ccc(S(=O)(=O)NNC(=O)Nc2ccc([N+](=O)[O-])cc2)cc1 : > 100 µM

TGI reading for Cn1cc(-c2nc(-c3cn(C)c4ncccc34)cs2)c2ccccc21 : 31 µM
